All values here come from patent US20230099858A1.

Assignment: determine reported IC50 for the given compounds.
# EXPERIMENTAL_TARGET: KRAS G12C (Homo sapiens, UniProt P01116, G12C)
# Construct: aa 2-169, expressed in E. coli; His-tag (TEV cleavable) (N); purchased Reaction Biology Corporation (RBC); host or cells: E. coli
# Sequence (P01116 2-169 G12C): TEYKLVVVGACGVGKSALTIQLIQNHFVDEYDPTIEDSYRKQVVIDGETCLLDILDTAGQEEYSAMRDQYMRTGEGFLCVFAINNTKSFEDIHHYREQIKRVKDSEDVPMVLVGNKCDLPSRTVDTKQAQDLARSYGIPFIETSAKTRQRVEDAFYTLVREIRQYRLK
# ASSAY_INFO: KRAS G12C/SOS1 Nucleotide Exchange Assay (SOS1-mediated Bodipy-GDP to GTP exchange)
# Format: biochemical
# REPORTED_CONDITIONS: substrate Bodipy-GDP/Kras G12C; 30 min pre-incubation at RT; plateau fixed to zero, rate x1000 used; read-out: IC50, Analysis Method: Rate Constant, KRAS G12C
Numbers only, in nM.

C=CC(=O)N1CCN(c2nc(OCC3CCCN3C)nc3nc(-c4cccc5cccc(Cl)c45)ccc23)C[C@H]1C (some centres unmarked) [Example 1]
58

Continue with the compound presented below.
IN: Please report the recorded IC50 for C=CC(=O)N1CCN(c2nc(OC[C@@H]3CCCN3C)nc3nc(-c4cccc5cccc(Cl)c45)ccc23)C[C@@H]1CC#N [Example 2] .
OUT: 8

---

# EXPERIMENTAL_TARGET: KRAS G12C (Homo sapiens, UniProt P01116, G12C)
# Construct: aa 2-169, expressed in E. coli; His-tag (TEV cleavable) (N); purchased Reaction Biology Corporation (RBC); host or cells: E. coli
# ASSAY_INFO: KRAS G12C/SOS1 Nucleotide Exchange Assay (SOS1-mediated Bodipy-GDP to GTP exchange)
# Assay type: biochemical
# REPORTED_CONDITIONS: substrate Bodipy-GDP/Kras G12C; 30 min pre-incubation at RT; plateau unconstrained, span value used (for covalent inhibitors); read-out: IC50, Analysis Method: Span, KRAS G12C
REPORTED_METRIC: pIC50
Answers are plain numbers, as −log10 of the molar value.

IN: Quick check: pIC50 on KRAS G12C (Homo sapiens, UniProt P01116, G12C), item C=CC(=O)N1CCN(c2nc(OC[C@@H]3CCCN3C)nc3nc(-c4cccc5cccc(Cl)c45)ccc23)C[C@@H]1CC#N ?
OUT: 7.60
